target of assay: DNA dC->dU-editing enzyme APOBEC-3F (Homo sapiens) (UniProt Q8IUX4)
Sequence (Q8IUX4 whole entry, looked up): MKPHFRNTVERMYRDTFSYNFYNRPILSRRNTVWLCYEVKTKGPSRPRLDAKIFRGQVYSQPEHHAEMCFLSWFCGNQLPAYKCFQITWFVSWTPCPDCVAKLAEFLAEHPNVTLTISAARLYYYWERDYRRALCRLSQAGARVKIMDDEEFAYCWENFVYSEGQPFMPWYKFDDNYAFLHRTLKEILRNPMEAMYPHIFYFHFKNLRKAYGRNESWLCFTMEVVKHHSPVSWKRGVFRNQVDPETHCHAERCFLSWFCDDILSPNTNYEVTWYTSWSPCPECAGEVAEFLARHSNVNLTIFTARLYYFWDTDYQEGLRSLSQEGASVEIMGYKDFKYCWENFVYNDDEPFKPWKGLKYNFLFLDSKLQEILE
assay notes: qHTS for inhibitors of Vif-A3F interactions: Cherry picks; further: potency means the concentration at half of the fitted maximal effect; nearly all actives have a fitted effect of over 70% in size
assay setup: HeLa A3F-eYFP + Vif, eYFP fluorescence, 24 h
The whole screen tested about 2,100 compounds, of which about 590 (28%) were called active. Inconclusive results (about 42%) are left out. Some of the results follow.
The reader will find reported Potency values listed item by item below.

Check the records and state Potency for Cc1cccc(-n2c(/C=C/c3c(C)[nH]c4ccccc34)nc3ccccc3c2=O)c1
20.6 µM (active)

Check the records and state Potency for CC(C)c1ccc(N2C(=O)NC(=O)/C(=C\C=C\c3ccco3)C2=O)cc1
17.7 µM (active)

Check the records and state Potency for CCCCn1c(O)c(C(=O)/C=C/c2c[nH]c3ccccc23)c(=O)[nH]c1=O
12.5 µM (active)

Check the records and state Potency for CC(=O)OC1C2(CC3N4C(=O)C5(CO)SSC4(CC31O)C(=O)N5C)OC(C)C(C)(C)C2=O (configuration not stated)
6.27 µM (active)

Check the records and state Potency for CN1CCN(c2ccc(/C=C3\C(=O)NC(=S)N(c4cccc(Br)c4)C3=O)o2)CC1
18.4 µM (active)

Check the records and state Potency for CN1C(=O)/C(=C/c2ccc(N3CCCCCC3)o2)C(=O)NC1=S
12.5 µM (active)

Check the records and state Potency for Cc1nn(Cc2ccccc2)c(C)c1C(=O)OCC(=O)Nc1ccccc1SCC#N
14 µM (active)

----------
target of assay: DNA dC->dU-editing enzyme APOBEC-3F (Homo sapiens) (UniProt Q8IUX4)
assay notes: qHTS for inhibitors of Vif-A3F interactions: Cherry picks; further: potency means the concentration at half of the fitted maximal effect; nearly all actives have a fitted effect of over 70% in size
assay setup: HeLa A3F-eYFP + Vif, eYFP fluorescence, 24 h
In all, about 2,100 compounds went through this assay and about 590 (28%) were called active. Not shown: some 42% with an inconclusive outcome. The list shows a part of the results.
readout type: Potency

Record excerpt, results attached:
molecule_smiles=CCCCCn1c(NC(=O)c2ccco2)c(C(=O)OCC)c2nc3ccccc3nc21 endpoint_value="15.8 µM (active)"
molecule_smiles=O=C1NC(=O)N(c2ccc3c(c2)OCO3)C(=O)/C1=C/c1ccc(N2CCCCC2)o1 endpoint_value="23.1 µM (active)"
molecule_smiles=CN1C(=O)C(=Cc2ccc(N3CCOCC3)o2)C(=O)N(C)C1=S endpoint_value="23.1 µM (active)"
molecule_smiles=O=c1[nH]c(=O)n(Cc2ccccc2Cl)c(O)c1/C=C1/C=CC=N1 endpoint_value="9.2 µM (active)"

Check the records and state Potency for CC(C)CCCn1c(O)c(/C=C2/C=CC=N2)c(=O)[nH]c1=O
18.4 µM (active)

----------
target of assay: DNA dC->dU-editing enzyme APOBEC-3F (Homo sapiens) (UniProt Q8IUX4)
assay notes: qHTS for inhibitors of Vif-A3F interactions: Cherry picks; further: potency means the concentration at half of the fitted maximal effect; nearly all actives have a fitted effect of over 70% in size
assay setup: HeLa A3F-eYFP + Vif (tagged APOBEC3F with the HIV-1 protein that degrades it), eYFP fluorescence, 24 h
The campaign covered roughly 2,100 compounds. About 590 (28%) were called active. About 42% were inconclusive and are not listed. This is one part of the list.
readout type: Potency

Record excerpt, results attached:
compound=CCN(CC)c1ccc(/C=C2\C(=O)NC(=S)N(C)C2=O)o1 endpoint_value="14 µM (active)"
compound=CC1=CC(=Cc2sc3ccccc3[n+]2C)C=C(C)O1 endpoint_value="5.17 µM (active)"

Check the records and state Potency for Nc1ccc2c3c(cccc13)-c1ccccc1-2
4.11 µM (active)

Check the records and state Potency for CCN(CC)c1ccc(C=C2C(=O)N(C)C(=S)N(C)C2=O)o1
3.96 µM (active)

Check the records and state Potency for O=c1c2ccccc2nc(/C=C/c2ccc([N+](=O)[O-])o2)n1-c1ccc(O)cc1
12.5 µM (active)

The origin of these recorded values is PubChem BioAssay AID651814.
